# testDetails: chemical genetic growth profiling, strain panel (AID 1159580);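 note: tested at 20 µM; growth read once vehicle control cultures reached saturation at 30 °C; 1 = growth at the plate median or of vehicle wells; lower values mean less growth of the strain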
# measurementConditions: S. cerevisiae deletion strains, growth OD, locus YBR279W, strain paf1, hits give low values
The campaign covered roughly 5,500 compounds. About 2,000 (36%) were called active. Inconclusive results (about 18%) are left out. Some of the results follow.

compound: Cc1cc(O)cc(=O)o1
normalized growth: 1 (inactive)
--
compound: NNC(=O)c1ccncc1
normalized growth: 1.01 (inactive)
--
compound: O=C(CNC(=O)c1ccc(Cl)cc1)NO
normalized growth: 1.01 (inactive)
--
compound: CCC(C)C(=O)O[C@H]1[C@H](O)C2C(CN3CC(C)CCC3[C@@]2(C)O)C2C[C@]34O[C@]5(O)C(OC(=O)C(C)(O)CC)CC[C@@]3(C)C5C(OC(C)=O)[C@@H](OC(C)=O)C4[C@@]21O (stereo partly specified)
normalized growth: 1.02 (inactive)
--
compound: COc1cc(C(=O)NCCCCCC(=O)O)cc(OC)c1OC
normalized growth: 0.979 (inactive)
--
compound: CNC(=O)O/N=C\C(C)(C)SC
normalized growth: 1.01 (inactive)
--
compound: Nc1c2ccccc2nc2ccccc12
normalized growth: 0.55 (active)
--
compound: Cc1cc(C(C)(C)C)c(O)c(C(C)(C)C)c1
normalized growth: 0.996 (inactive)
--
compound: O=C1C(O)=C(O)C(=O)C(O)=C1O
normalized growth: 1.01 (inactive)
--
compound: CC(=O)O[C@H]1CC[C@@]2(C)C(CC[C@]3(C)C2CC=C2C4CC(C)(C)CC[C@]4(C)CC[C@]23C)C1(C)C (stereo partly specified)
normalized growth: 0.999 (inactive)
--
compound: C#C[C@]1(O)CCC2C3CCC4=C(CCC(=O)C4)C3CC[C@@]21C (stereo partly specified)
normalized growth: 0.982 (inactive)
--
compound: CC(C)(C#N)O[C@@H]1O[C@H](CO)[C@@H](O)[C@H](O)[C@H]1O
normalized growth: 1.01 (inactive)
--
compound: COc1ccc2c(c1)c(CC(=O)OCC(=O)O)c(C)n2C(=O)c1ccc(Cl)cc1
normalized growth: 1.01 (inactive)
--
compound: CCN1C[C@]2(OC(=O)c3ccccc3NC(C)=O)CCC(OC)[C@]34C1[C@H](CC23)[C@@]1(O)CC(OC)[C@H]2CC4C1(O)[C@H]2OC (stereo partly specified)
normalized growth: 0.979 (inactive)
--
compound: Nc1ccc(S(=O)(=O)Nc2ccnn2-c2ccccc2)cc1
normalized growth: 0.996 (inactive)
--
compound: OC(CCN1CCCCC1)(c1ccccc1)C1CCCCC1 (stereo unspecified)
normalized growth: 0.984 (inactive)
--
compound: CC(=O)O[C@@H]1CC[C@@]2(C)C(CC[C@]3(C)C2CC=C2C4CC(C)(C)CC[C@]4(C(=O)O)CC[C@]23C)C1(C)C (stereo partly specified)
normalized growth: 0.982 (inactive)
--
compound: CC(C)CC(N(C)C)C1(c2ccc(Cl)cc2)CCC1 (stereo unspecified)
normalized growth: 1.01 (inactive)
--
compound: C#C[C@]1(OC(C)=O)CCC2C3CCC4=CC(=O)CC[C@@H]4C3CC[C@@]21C (stereo partly specified)
normalized growth: 0.977 (inactive)
--
compound: C#C[C@]1(OC(C)=O)CCC2C3CCC4=C/C(=N\O)CCC4C3CC[C@@]21CC (stereo partly specified)
normalized growth: 0.879 (active)
--
compound: CC1OC(=O)C(C(C)C)NC(=O)C(C(C)C)OC(=O)C(C(C)C)NC(=O)C(C)OC(=O)C(C(C)C)NC(=O)C(C(C)C)OC(=O)C(C(C)C)NC(=O)C(C)OC(=O)C(C(C)C)NC(=O)C(C(C)C)OC(=O)C(C(C)C)NC1=O (stereo unspecified)
normalized growth: 0.544 (active)
--
compound: Cc1cc(O)cc(C)c1Cl
normalized growth: 0.899 (active)
--
compound: CC1(C)CC[C@]2(C(=O)O)CC[C@]3(C)C(=CCC4[C@@]5(C)CC[C@H](O)[C@@](C)(CO)C5CC[C@]43C)C2C1 (stereo partly specified)
normalized growth: 1.02 (inactive)
--
compound: CC(C)=CCCC1(C)C=Cc2c(O)c3c(c(CC=C(C)C)c2O1)OC12C(=CCCC1C(C)(C)O[C@@]2(C/C=C(\C)C(=O)O)C(=O)O)C3=O (stereo partly specified)
normalized growth: 0.933 (inactive)
--
compound: C[C@@H]1OC(O[C@H]2C(O[C@H]3CC[C@@]4(C)C(CC[C@]5(C)C4CC=C4C6CC(C)(C)CC[C@]6(C(=O)O)CC[C@]45C)[C@]3(C)CO)OC[C@H](O)[C@@H]2O)[C@H](O)[C@H](O)[C@H]1O (stereo partly specified)
normalized growth: 0.0577 (active)
--
compound: CC1(C)CC(O)C2(C)CCC3(C)C(=CCC4C5(C)CCC(O)C(C)(CO)C5CCC43C)C2C1 (stereo unspecified)
normalized growth: 1.02 (inactive)
--
compound: Cc1cc(O)ccc1Cl
normalized growth: 1.02 (inactive)
--
compound: CC1=NS(=O)(=O)c2cc(Cl)ccc2N1
normalized growth: 0.952 (inactive)
--
compound: CC(C)(Sc1cc(C(C)(C)C)c(O)c(C(C)(C)C)c1)Sc1cc(C(C)(C)C)c(O)c(C(C)(C)C)c1
normalized growth: 0.993 (inactive)
--
compound: N#CC(O[C@@H]1O[C@H](CO[C@@H]2O[C@H](CO)[C@@H](O)[C@H](O)[C@H]2O)[C@@H](O)[C@H](O)[C@H]1O)c1ccccc1 (stereo partly specified)
normalized growth: 0.981 (inactive)
--
compound: CC1(C)CC[C@]2(C)CC[C@]3(C)C(=CCC4[C@@]5(C)CC[C@H](O)C(C)(C)C5CC[C@]43C)C2C1 (stereo partly specified)
normalized growth: 0.991 (inactive)
--
compound: C[C@]12CCC(=O)C=C1CCC1C2[C@@H](O)C[C@@]2(C)C1CC[C@]2(O)C(=O)CO (stereo partly specified)
normalized growth: 0.98 (inactive)
--
compound: CC1(C)CC[C@]2(C(=O)O)CC[C@]3(C)C(=CCC4[C@@]5(C)CC[C@@H](O)C(C)(C)C5CC[C@]43C)C2C1 (stereo partly specified)
normalized growth: 1.01 (inactive)
--
compound: C/C=C(/C)C(=O)OC1CCC2(C)C3CCC4C5(O)CC(O)C6(O)C(CN7CC(C)CCC7C6(C)O)C5(O)CC42OC13O (stereo unspecified)
normalized growth: 0.99 (inactive)
--
compound: COc1ccc2[nH]cc(CCN)c2c1
normalized growth: 0.995 (inactive)
--
compound: CC(C)=CCCC1(C)C=Cc2c(O)c3c(c(CC=C(C)C)c2O1)OC12C(=CC4CC1C(C)(C)OC2(C/C=C(/C)C(=O)O)C4=O)C3=O (stereo unspecified)
normalized growth: 0.815 (active)

Data credit: PubChem BioAssay AID1159580
